Source listed as patent US12065436B2.

Exercise: for every item that follows, state its recorded CDMF75 IC15.
Target: bovine cardiac myofibrils (full-length cardiac myosin ATPase in the native sarcomere) (Bos taurus (Bovine))
Sequence (Q9BE39 whole entry): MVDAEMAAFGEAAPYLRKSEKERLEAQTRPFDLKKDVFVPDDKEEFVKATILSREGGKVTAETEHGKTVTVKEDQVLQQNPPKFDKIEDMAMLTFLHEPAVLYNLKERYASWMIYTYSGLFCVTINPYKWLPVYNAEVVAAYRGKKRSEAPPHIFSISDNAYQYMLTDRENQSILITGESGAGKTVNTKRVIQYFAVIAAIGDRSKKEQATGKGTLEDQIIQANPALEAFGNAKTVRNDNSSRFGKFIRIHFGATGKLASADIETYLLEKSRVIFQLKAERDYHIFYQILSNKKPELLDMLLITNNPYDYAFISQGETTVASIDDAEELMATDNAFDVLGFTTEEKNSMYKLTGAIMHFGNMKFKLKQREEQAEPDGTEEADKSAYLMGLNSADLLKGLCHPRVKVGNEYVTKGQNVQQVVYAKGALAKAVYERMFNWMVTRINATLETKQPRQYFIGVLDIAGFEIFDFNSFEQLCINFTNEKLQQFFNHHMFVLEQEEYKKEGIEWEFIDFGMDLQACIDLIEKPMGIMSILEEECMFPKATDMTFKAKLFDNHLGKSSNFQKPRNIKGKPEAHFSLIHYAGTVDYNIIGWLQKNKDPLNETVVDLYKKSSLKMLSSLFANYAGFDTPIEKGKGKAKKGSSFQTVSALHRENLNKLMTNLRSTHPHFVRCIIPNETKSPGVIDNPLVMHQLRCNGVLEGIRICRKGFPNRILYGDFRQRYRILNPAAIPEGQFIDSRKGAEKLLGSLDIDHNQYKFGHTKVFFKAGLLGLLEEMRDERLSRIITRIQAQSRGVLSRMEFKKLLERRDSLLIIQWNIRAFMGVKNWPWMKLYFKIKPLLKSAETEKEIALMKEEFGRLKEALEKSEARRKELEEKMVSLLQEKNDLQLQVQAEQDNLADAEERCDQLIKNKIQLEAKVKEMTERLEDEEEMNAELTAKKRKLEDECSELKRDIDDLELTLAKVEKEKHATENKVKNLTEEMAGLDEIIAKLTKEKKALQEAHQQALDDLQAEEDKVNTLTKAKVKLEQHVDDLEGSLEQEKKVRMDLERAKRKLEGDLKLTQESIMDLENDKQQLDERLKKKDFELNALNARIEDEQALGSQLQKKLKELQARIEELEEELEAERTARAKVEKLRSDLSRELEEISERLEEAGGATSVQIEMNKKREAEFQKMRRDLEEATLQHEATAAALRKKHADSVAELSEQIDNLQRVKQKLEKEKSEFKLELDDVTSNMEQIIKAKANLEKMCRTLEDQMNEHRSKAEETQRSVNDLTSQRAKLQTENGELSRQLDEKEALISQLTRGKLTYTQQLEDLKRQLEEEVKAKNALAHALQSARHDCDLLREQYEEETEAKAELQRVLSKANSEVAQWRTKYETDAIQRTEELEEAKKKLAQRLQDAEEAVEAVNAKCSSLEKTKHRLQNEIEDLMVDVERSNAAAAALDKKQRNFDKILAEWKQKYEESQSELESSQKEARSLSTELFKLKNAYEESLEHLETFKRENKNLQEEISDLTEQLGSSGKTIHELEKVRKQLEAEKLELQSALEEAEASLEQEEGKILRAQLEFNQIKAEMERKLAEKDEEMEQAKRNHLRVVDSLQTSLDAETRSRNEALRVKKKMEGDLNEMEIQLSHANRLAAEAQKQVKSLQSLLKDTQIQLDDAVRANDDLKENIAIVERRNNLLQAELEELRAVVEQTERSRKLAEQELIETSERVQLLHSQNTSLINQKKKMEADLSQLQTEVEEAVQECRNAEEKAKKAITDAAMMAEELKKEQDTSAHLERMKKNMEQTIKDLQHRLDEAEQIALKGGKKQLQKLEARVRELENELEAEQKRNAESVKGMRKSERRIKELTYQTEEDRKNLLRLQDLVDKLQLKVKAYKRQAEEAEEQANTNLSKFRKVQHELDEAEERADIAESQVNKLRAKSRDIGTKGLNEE
Sequence (P85100 whole entry partner): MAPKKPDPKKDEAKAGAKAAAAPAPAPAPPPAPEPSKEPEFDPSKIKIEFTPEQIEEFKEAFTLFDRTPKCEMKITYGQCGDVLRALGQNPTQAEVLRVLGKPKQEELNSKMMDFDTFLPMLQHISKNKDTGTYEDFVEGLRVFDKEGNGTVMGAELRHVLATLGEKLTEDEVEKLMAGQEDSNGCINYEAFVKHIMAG
Sequence (Q3SZE5 whole entry partner): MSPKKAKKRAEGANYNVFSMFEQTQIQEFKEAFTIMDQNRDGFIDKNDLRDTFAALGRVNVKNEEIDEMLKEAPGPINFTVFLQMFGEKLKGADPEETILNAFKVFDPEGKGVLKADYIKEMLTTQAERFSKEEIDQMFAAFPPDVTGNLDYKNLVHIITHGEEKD
Assay: Skinned bovine cardiac myofibril ATPase assay (PK/LDH-coupled)
Type: biochemical
Details: Ca2+ activating to 75% of maximal rate, concentration giving 15% inhibition
Give the quantity in µM, number only.

Entry CCc1nc(-c2ccc3c(c2)CC[C@H]3NC(=O)c2cnc(C)o2)no1 [Compound 385] ; CDMF75 IC15 = 0.5

Entry Cn1cc(C(=O)NC2COc3cc(-c4noc(C5CC5)n4)ccc32)cn1 (stereo not shown) [Compound 237] ; CDMF75 IC15 = 1.1

Entry Cc1cc(-c2ccc3c(c2)CC[C@H]3NC(=O)c2cnc(C)o2)no1 [Compound 416] ; CDMF75 IC15 = 1.2

Entry Cc1nn(C)cc1C(=O)N[C@@H]1CCc2cc(-c3noc(C(C)C)n3)ccc21 [Compound 152] ; CDMF75 IC15 = 0.6

Entry Cn1nnnc1C(=O)N[C@@H]1CCc2cc(-c3noc(C(F)F)n3)ccc21 [Compound 189] ; CDMF75 IC15 = 1.4

Entry Cc1nc(-c2ccc3c(c2)CC[C@H]3NC(=O)c2nnn(C)n2)no1 [Compound 136] ; CDMF75 IC15 = 0.8

Entry COCc1nc(-c2ccc3c(c2)CC[C@H]3NC(=O)c2ccnc(C)c2)no1 [Compound 176] ; CDMF75 IC15 = 1.2

Entry Cc1c(C(=O)N[C@@H]2CCc3cc(-c4nc(C(F)F)no4)ccc32)cnn1C [Compound 277] ; CDMF75 IC15 = 1.4

Entry [2H]C([2H])([2H])c1nc(-c2ccc3c(c2)CC[C@H]3NC(=O)c2cnc(C)o2)no1 [Compound 249] ; CDMF75 IC15 = 1.4

Entry Cc1cc(C(=O)N[C@@H]2COc3cc(-c4noc(C(F)F)n4)ccc32)n(C)n1 [Compound 191] ; CDMF75 IC15 = 0.3

Entry CCc1nc(-c2ccc3c(c2)CC[C@H]3NC(=O)c2cc(C)ncc2F)no1 [Compound 556] ; CDMF75 IC15 = 1.4

Entry CCOC(=O)C(C)c1nc(-c2ccc3c(c2)CC[C@H]3NC(=O)c2nnn(C)n2)no1 (stereo partly shown) [Compound 504] ; CDMF75 IC15 = 4.4

Entry CC(C)COC(=O)N[C@@H]1CCc2cc(-c3noc(C(F)F)n3)ccc21 [Compound 280] ; CDMF75 IC15 = 0.7

Entry CCc1cc(-c2ccc3c(c2)CC[C@H]3NC(=O)c2cn[nH]c2C)no1 [Compound 431] ; CDMF75 IC15 = 0.3

Entry Cc1nc(-c2ccc3c(c2)CC[C@H]3NC(=O)c2ocnc2C)no1 [Compound 449] ; CDMF75 IC15 = 0.5

Entry Cc1cc(C(=O)N[C@@H]2CCc3cc(-c4noc(C(F)F)n4)ccc32)ncn1 [Compound 683] ; CDMF75 IC15 = 1.1

Entry O=C(N[C@@H]1COc2cc(-c3noc(C(F)F)n3)ccc21)c1ccnc(CO)c1 [Compound 710] ; CDMF75 IC15 = 0.4

Entry Cc1noc(-c2ccc3c(c2)CC[C@H]3NC(=O)c2cnn(C)c2C)n1 [Compound 264] ; CDMF75 IC15 = 1.8

Entry CCOC(=O)C(C)c1nc(-c2ccc3c(c2)CC[C@H]3NC(=O)c2ccnn2C)no1 (stereo partly shown) [Compound 492] ; CDMF75 IC15 = 1.1

Entry CCc1nc(-c2ccc3c(c2)CC[C@H]3NC(=O)c2cnn(C3CN(C(C)=O)C3)c2)no1 [Compound 477] ; CDMF75 IC15 = 8.5

Entry CC(C)c1nc(-c2ccc3c(c2)CC[C@H]3NC(=O)c2nnn(C)n2)no1 [Compound 142] ; CDMF75 IC15 = 0.5

Entry Cc1cc(C(=O)NC2COc3cc(-c4noc(C)n4)cnc32)ccn1 (stereo not shown) [Compound 187] ; CDMF75 IC15 = 11.5

Entry Cc1nc(-c2ccc3c(c2)OC[C@H]3NC(=O)c2nnn(C)n2)no1 [Compound 200] ; CDMF75 IC15 = 2.6

Entry CCc1nc(-c2ccc3c(c2)CC[C@H]3NC(=O)OCC2CC2)no1 [Compound 323] ; CDMF75 IC15 = 0.3

Entry Cc1nn(C)cc1C(=O)N[C@@H]1CCc2cc(-c3nc(C(F)F)no3)ccc21 [Compound 214] ; CDMF75 IC15 = 1.3

Entry Cc1cc(C(=O)N[C@@H]2COc3cc(-c4noc(C5CC5)n4)ccc32)n(C)n1 [Compound 233] ; CDMF75 IC15 = 0.3

Entry COCc1nc(-c2ccc3c(c2)CCC3NC(=O)c2cn(C)nc2C)no1 (stereo not shown) [Compound 76] ; CDMF75 IC15 = 1.7

Entry CC(=O)N1CC[C@@H]1C(=O)N[C@@H]1CCc2cc(-c3noc(C4CC4)n3)ccc21 [Compound 331] ; CDMF75 IC15 = 20.0

Entry CCc1nc(-c2ccc3c(c2)CC[C@H]3NC(=O)c2ccc(=O)n(CCO)c2)no1 [Compound 605] ; CDMF75 IC15 = 0.8

Entry Cc1ccc(-c2ccc3c(c2)CC[C@H]3NC(=O)c2ccnn2C)cc1 [Compound 374] ; CDMF75 IC15 = 1.7

Entry Cc1cc(C(=O)N[C@@H]2CCc3cc(-c4noc(C5CCC5)n4)ccc32)ccn1 [Compound 412] ; CDMF75 IC15 = 0.5

Entry Cn1nccc1C(=O)N[C@@H]1CCc2cc(-c3nc(C(F)F)no3)ccc21 [Compound 217] ; CDMF75 IC15 = 0.6

Entry CC(=O)c1nc(-c2ccc3c(c2)CC[C@H]3NC(=O)c2cnn(C)c2)no1 [Compound 545] ; CDMF75 IC15 = 3.2

Entry COCc1nc(-c2ccc3c(c2)CC[C@H]3NC(=O)c2cnn(CCO)c2C)no1 [Compound 694] ; CDMF75 IC15 = 1.8
